Assay: pharmacokinetics of I-1 after intravenous bolus in normal and tMCAO nonhuman primates
Format: in vivo, nonhuman primate
Conditions: monkey, plasma, iv, 0.5 mg/kg, Normal NHP (n = 3), intravenous bolus 0.5 mg/kg
Property: C0 (ng/mL)
Reply with just the number (in ng/mL).

Lookup: Give the value of C0 reported for the following: CSc1nc(N)c2ncn([C@H]3C(O)C(O)[C@]4(CO)C[C@H]34)c2n1 (stereo in doubt)
Found: 329

* * *

Test: pharmacokinetics of I-1 after intravenous bolus in normal and tMCAO nonhuman primates
Type: in vivo, nonhuman primate
Details: monkey, plasma, iv, 0.5 mg/kg, Normal NHP (n = 3), intravenous bolus 0.5 mg/kg
Property: clearance
Write the numeric value and follow it with the unit.

Lookup: State its clearance: CSc1nc(N)c2ncn([C@H]3C(O)C(O)[C@]4(CO)C[C@H]34)c2n1 (stereo in doubt) [Compound I-1]
Found: 29 mL/min/kg

* * *

Assay: pharmacokinetics of I-1 after intravenous bolus in normal and tMCAO nonhuman primates
Assay type: in vivo, nonhuman primate
Settings: monkey, plasma, iv, 0.5 mg/kg, Normal NHP (n = 3), intravenous bolus 0.5 mg/kg; read-out: Vdss
Property: Vd (L/kg)
Give the quantity in L/kg, number only.

Lookup: Read off the recorded Vd for CSc1nc(N)c2ncn([C@H]3C(O)C(O)[C@]4(CO)C[C@H]34)c2n1 (stereo in doubt)
Found: 3.1

* * *

Assay: pharmacokinetics of I-1 after intravenous bolus in normal and tMCAO nonhuman primates
Assay type: in vivo, nonhuman primate
Conditions: monkey, plasma, iv, 0.5 mg/kg, tMCAO NHP (n = 1), intravenous bolus 0.5 mg/kg; read-out: Vdss
Property: Vd (L/kg)
Note: unit L/kg is implicit; provide only the numeric part.

Lookup: Supply recorded Vd for CSc1nc(N)c2ncn([C@H]3C(O)C(O)[C@]4(CO)C[C@H]34)c2n1 (stereo in doubt) [Compound I-1] here.
Found: 3

* * *

Assay: pre-efficacy pharmacokinetic study, intravenous bolus/constant rate infusion in tMCAO cynomolgus monkeys
Type: in vivo, cynomolgus monkey
Details: cynomolgus monkey, CSF/plasma, intravenous, tMCAO (n = 1), bolus 0.11 mg/kg / infusion 0.0582 mg/kg/hr; read-out: CSF/Plasma At 22-hour End of Dosing
Property: Kp at 22 h
Respond numerically, and do not add a unit to the figure.

Lookup: Return reported Kp at 22 h. Input compound: CSc1nc(N)c2ncn([C@H]3C(O)C(O)[C@]4(CO)C[C@H]34)c2n1 (stereo in doubt)
Found: 0.094

* * *

Assay: pharmacokinetics of I-1 after intravenous bolus in normal and tMCAO nonhuman primates
Type: in vivo, nonhuman primate
Conditions: monkey, plasma, iv, 0.5 mg/kg, tMCAO NHP (n = 1), intravenous bolus 0.5 mg/kg
Property: clearance (mL/min/kg)
Use mL/min/kg as the unit, but write only the number.

Lookup: Please indicate clearance recorded for CSc1nc(N)c2ncn([C@H]3C(O)C(O)[C@]4(CO)C[C@H]34)c2n1 (stereo in doubt)
Found: 28

* * *

Test: pharmacokinetics of I-1 after intravenous bolus in normal and tMCAO nonhuman primates
Assay type: in vivo, nonhuman primate
Conditions: monkey, plasma, iv, 0.5 mg/kg, tMCAO NHP (n = 1), intravenous bolus 0.5 mg/kg
Property: C0 (ng/mL)
Numbers only here, please. The scale is ng/mL.

Lookup: // Input: CSc1nc(N)c2ncn([C@H]3C(O)C(O)[C@]4(CO)C[C@H]34)c2n1 (stereo in doubt) . Output its C0 only.
Found: 544
